target: K2; experiment: SPR
quantity measured: pKd
One number for each entry, as −log10 of the molar value.

Task: Using the record for mouse C5a protein (ligand) NLHLLRQKIEEQAAKYKHSVPKKCCYDGARVNFYETCEERVARVTIGPLCIRAFNECCTIANKIRKESPHKPVQLGR , report its pKd.
Output: 4.27
